- measured-on: T1, MHC class I allele A*0301 monomer (human, biotinylated, bound to streptavidin-coated plate)
- T1 construct: also called A3; HLA-A3
- test-summary: iTopia, multiparametric iScore
- Description: The 9 mers were tested for Peptide Binding, Off Rate and Affinity using iTopia Epitope Discovery System in accordance with the manufacturer's instructions. Briefly, 96 well microtitre plates coated with MHC molecules representing different MHC alleles are used to identify candidate peptides. […] Determinations are performed in duplicate using an ELISA plate reader and included allele specific positive controls. […]
Examples of binders with documented iScore follow.

binder: GLPHIRVFL [5T4 9-mer peptide 142]
iScore: 0.319
//
binder: LASNHFLYL [5T4 9-mer peptide 109]
iScore: 0.224
//
binder: LLVLYLNRK [5T4 9-mer peptide 186]
iScore: 0.375
//
binder: HMEGYHYRY [5T4 9-mer peptide 198]
iScore: 0.189
//
binder: LTYVSFRNL [5T4 9-mer peptide 125]
iScore: 0.157
//
binder: VVAALLAGR [5T4 9-mer peptide 100]
iScore: 0.125
